Target: T1, Atl1 (MBP fusion cleaved with Factor Xa) (Schizosaccharomyces pombe, UniProt Q9UTN9 1-108)
T1 sequence: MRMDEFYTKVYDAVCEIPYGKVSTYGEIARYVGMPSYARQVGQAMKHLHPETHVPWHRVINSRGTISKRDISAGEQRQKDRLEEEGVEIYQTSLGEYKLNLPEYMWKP
Experiment: EMSA
PROPERTY LABEL: binding result

O6-HOEtG 23-mer duplex (dsDNA, O6-hydroxyethylguanine at G6 of strand 1) DNA 1: GAACTGCAGCTCCGTGCTGGCCC DNA 2: GGGCCAGCACGGAGCTGCAGTTC :: binds
O6-BnG 23-mer duplex (dsDNA, O6-benzylguanine at G6 of strand 1) DNA 1: GAACTGCAGCTCCGTGCTGGCCC DNA 2: GGGCCAGCACGGAGCTGCAGTTC :: binds
O6-BTG 23-mer duplex (dsDNA, O6-(4-bromothenyl)guanine at G6 of strand 1) DNA 1: GAACTGCAGCTCCGTGCTGGCCC DNA 2: GGGCCAGCACGGAGCTGCAGTTC :: binds
O6-CMG 23-mer duplex (dsDNA, O6-carboxymethylguanine at G6 of strand 1) DNA 1: GAACTGCAGCTCCGTGCTGGCCC DNA 2: GGGCCAGCACGGAGCTGCAGTTC :: binds

Numbers sourced from paper PMC3398191.
